These entries and their values trace back to patent US7109380B2.

- System: Phomopsis obscurans
- assay-overview: 96-well microtiter fungal growth assay
- Format: cell-based
- stated-conditions: 30 μm, 120 hrs
Measured Percent change in fungal growth vs control (negative = inhibition) by item
Form entry: value (%) — number only.

>>> test_value("CO/C=C(/C(=O)OC)c1ccccc1Oc1cc(Oc2ccccc2C#N)ncn1 [Azoxystrobin]")
"−99.3"
>>> test_value("Cc1cc(C2CC2)nc(Nc2ccccc2)n1 [Cyprodinil]")
"−86.8"
>>> test_value("O=C1C2CC=CCC2C(=O)N1SC(Cl)(Cl)Cl (stereo not shown) [Captan]")
"−100"

Alright, here's another compound for you.
Item: COC(/C=C/c1ccccc1)=C1\C(=O)C=C(C)C1=O [Compound 1, coruscanone A] | Percent change in fungal growth vs control (negative = inhibition): −88.5

---

- Test system: Colletotrichum acutatum
- assay-overview: 96-well microtiter fungal growth assay;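 further: percent relative to untreated positive growth controls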
- Format: cell-based
- stated-conditions: 30 μm, 72 hrs
- Description: Pathogen collection. […] Inoculum preparation. […] Conidia concentrations were determined photometrically, from a standard curve based on the absorbance at 625 nm and suspensions were then adjusted with sterile distilled water to a concentration of 1.0×10^6 conidia/mL. Microtiter assay. […] Growth was then evaluated by measuring absorbance of each well at 620 nm using a microplate photometer (Packard Spectra Count, Packard Instrument Co., Downers Grove, Ill.). […]
Measured Mean percent fungal growth inhibition of Colletotrichum acutatum by item
Form entry: value (%) — number only.

Worked examples follow.
>>> test_value("O=C1C2CC=CCC2C(=O)N1SC(Cl)(Cl)Cl (stereo not shown) [Captan]")
"−99.7"
>>> test_value("Cc1cc(C2CC2)nc(Nc2ccccc2)n1 [Cyprodinil]")
"−99.0"

Item: CO/C=C(/C(=O)OC)c1ccccc1Oc1cc(Oc2ccccc2C#N)ncn1 [Azoxystrobin] | Mean percent fungal growth inhibition of Colletotrichum acutatum: −84.1

Item: COC(/C=C/c1ccccc1)=C1\C(=O)C=C(C)C1=O [Compound 1, coruscanone A] | Mean percent fungal growth inhibition of Colletotrichum acutatum: −97.6

---

- Test system: Fusarium oxysporum
- assay-overview: 96-well microtiter fungal growth assay;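 further: percent relative to untreated positive growth controls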
- Format: cell-based
- stated-conditions: 3.0 μm, 72 hrs
experimental-readout: Mean percent fungal growth inhibition of Fusarium oxysporum

Worked examples follow.
>>> test_value("O=C1C2CC=CCC2C(=O)N1SC(Cl)(Cl)Cl (stereo not shown)")
"−5.4 ± 4.4%"
>>> test_value("CO/C=C(/C(=O)OC)c1ccccc1Oc1cc(Oc2ccccc2C#N)ncn1")
"−40.1 ± 3.5%"
>>> test_value("Cc1cc(C2CC2)nc(Nc2ccccc2)n1")
"1.8 ± 2.7%"

Item: COC(/C=C/c1ccccc1)=C1\C(=O)C=C(C)C1=O | Mean percent fungal growth inhibition of Fusarium oxysporum: −24.2 ± 3.3%

---

- Test system: Colletotrichum acutatum
- assay-overview: 96-well microtiter fungal growth assay;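 further: percent relative to untreated positive growth controls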
- Assay type: cell-based
- stated-conditions: 30 μm, 48 hrs
- Description: Pathogen collection. […] Inoculum preparation. […] Conidia concentrations were determined photometrically, from a standard curve based on the absorbance at 625 nm and suspensions were then adjusted with sterile distilled water to a concentration of 1.0×10^6 conidia/mL. Microtiter assay. […] Growth was then evaluated by measuring absorbance of each well at 620 nm using a microplate photometer (Packard Spectra Count, Packard Instrument Co., Downers Grove, Ill.). […]
Measured Mean percent fungal growth inhibition of Colletotrichum acutatum by item
A complete answer gives the number and then names the unit.

Worked examples follow.
>>> test_value("CO/C=C(/C(=O)OC)c1ccccc1Oc1cc(Oc2ccccc2C#N)ncn1")
"−94.3 ± 1.1%"
>>> test_value("COC(/C=C/c1ccccc1)=C1\\C(=O)C=C(C)C1=O")
"−95.8 ± 1.9%"
>>> test_value("O=C1C2CC=CCC2C(=O)N1SC(Cl)(Cl)Cl (stereo not shown)")
"−98.6 ± 0.5%"

Item: Cc1cc(C2CC2)nc(Nc2ccccc2)n1 | Mean percent fungal growth inhibition of Colletotrichum acutatum: −99.7 ± 0.7%

---

Measured MFC by item
- Tested on: C. albicans ATCC 90028
- assay-overview: In vitro antimicrobial assay (modified NCCLS), Candida media pH 4.5
- Format: cell-based, Candida albicans
- stated-conditions: Candida albicans, ATCC90028; C. albicans ATCC 90028, pH 4.5, Table 3; read-out: MFC
Form entry: value (µg/mL) — number only.

Worked examples follow.
>>> test_value("CCOC(/C=C/c1ccccc1)=C1/C(=O)C=C(C)C1=O")
10
>>> test_value("COC(/C=C/c1ccccc1)=C1\\C(=O)C=C(C)C1=O")
0.63
>>> test_value("CC1=CC(=O)/C(=C(O)/C=C/c2ccccc2)C1=O")
5

Alright, here's another compound for you.
Item: COC(C)=C1C(=O)C=C(C)C1=O | MFC: 20

---

- Tested on: Fusarium oxysporum
- assay-overview: 96-well microtiter fungal growth assay;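 further: percent relative to untreated positive growth controls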
- Type: cell-based
- stated-conditions: 3.0 μm, 48 hrs
experimental-readout: Mean percent fungal growth inhibition of Fusarium oxysporum (%)
Form entry: value (%) — number only.

Item: CO/C=C(/C(=O)OC)c1ccccc1Oc1cc(Oc2ccccc2C#N)ncn1 | Mean percent fungal growth inhibition of Fusarium oxysporum: −66.4

Item: O=C1C2CC=CCC2C(=O)N1SC(Cl)(Cl)Cl (stereo not shown) | Mean percent fungal growth inhibition of Fusarium oxysporum: −50.0

Item: COC(/C=C/c1ccccc1)=C1\C(=O)C=C(C)C1=O | Mean percent fungal growth inhibition of Fusarium oxysporum: −76.9

Item: Cc1cc(C2CC2)nc(Nc2ccccc2)n1 | Mean percent fungal growth inhibition of Fusarium oxysporum: 2.6

---

- Tested on: M. intracellulare ATCC 23068
- assay-overview: In vitro antibacterial assay (modified method of Franzblau, Alamar Blue)
- Assay type: cell-based
- stated-conditions: Mycobacterium intracellulare, ATCC23068; M. intracellulare ATCC 23068; read-out: MBC (Minimum Bactericidal Concentration)
experimental-readout: MBC (µg/mL)
Form entry: value (µg/mL) — number only.

>>> test_value("O=C(O)c1cn(C2CC2)c2cc(N3CCNCC3)c(F)cc2c1=O [CIP, ciprofloxacin, reference compound]")
1.25
>>> test_value("CC(=O)OC(/C=C/c1ccccc1)=C1/C(=O)C=C(C)C1=O")
20
>>> test_value("COC(/C=C/c1ccccc1)=C1\\C(=O)C=C(C)C1=O")
5

Alright, here's another compound for you.
Item: CCOC(/C=C/c1ccccc1)=C1/C(=O)C=C(C)C1=O | MBC: 20

---

Measured Mean percent fungal growth inhibition of Colletotrichum gloeosporoides by item
- Tested on: Colletotrichum gloeosporioides
- assay-overview: 96-well microtiter fungal growth assay;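 further: percent relative to untreated positive growth controls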
- Format: cell-based
- stated-conditions: 30 μm, 48 hrs
- Method: Pathogen collection. […] Inoculum preparation. […] Conidia concentrations were determined photometrically, from a standard curve based on the absorbance at 625 nm and suspensions were then adjusted with sterile distilled water to a concentration of 1.0×10^6 conidia/mL. Microtiter assay. […] Growth was then evaluated by measuring absorbance of each well at 620 nm using a microplate photometer (Packard Spectra Count, Packard Instrument Co., Downers Grove, Ill.). […]
Form entry: value (%) — number only.

>>> test_value("O=C1C2CC=CCC2C(=O)N1SC(Cl)(Cl)Cl (stereo not shown)")
"−98.4"
>>> test_value("Cc1cc(C2CC2)nc(Nc2ccccc2)n1")
"−95.1"
>>> test_value("COC(/C=C/c1ccccc1)=C1\\C(=O)C=C(C)C1=O")
"−95.2"

Colletotrichum gloeosporioides Mean percent fungal growth inhibition of Colletotrichum gloeosporoides of CO/C=C(/C(=O)OC)c1ccccc1Oc1cc(Oc2ccccc2C#N)ncn1 is −97.7

---

Measured Mean percent fungal growth inhibition of Colletotrichum fragariae by item
- Tested on: Colletotrichum fragariae
- assay-overview: 96-well microtiter fungal growth assay;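 further: percent relative to untreated positive growth controls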
- Assay type: cell-based
- stated-conditions: 3.0 μm, 48 hrs
Form entry: value (%) — number only.

>>> test_value("Cc1cc(C2CC2)nc(Nc2ccccc2)n1")
"−89.0"

Item: COC(/C=C/c1ccccc1)=C1\C(=O)C=C(C)C1=O | Mean percent fungal growth inhibition of Colletotrichum fragariae: −94.0

Item: O=C1C2CC=CCC2C(=O)N1SC(Cl)(Cl)Cl (stereo not shown) | Mean percent fungal growth inhibition of Colletotrichum fragariae: −96.2

Item: CO/C=C(/C(=O)OC)c1ccccc1Oc1cc(Oc2ccccc2C#N)ncn1 | Mean percent fungal growth inhibition of Colletotrichum fragariae: −78.9

---

Measured IC50 by item
- Tested on: C. glabrata ATCC 90030
- assay-overview: In vitro antimicrobial assay (modified NCCLS), Candida media pH 4.5
- Format: cell-based, Candida glabrata
- stated-conditions: Nakaseomyces glabratus, ATCC90030; C. glabrata ATCC 90030, pH 4.5; read-out: IC50 (50% inhibitory concentration)
Form entry: value (µg/mL) — number only.

Worked examples follow.
>>> test_value("CC(=O)OC(/C=C/c1ccccc1)=C1/C(=O)C=C(C)C1=O")
5.5
>>> test_value("COC(C)=C1C(=O)C=C(C)C1=O")
3.5
>>> test_value("CC1=CC(=O)/C(=C(O)/C=C/c2ccccc2)C1=O")
1.5

Alright, here's another molecule for you.
Item: CCOC(/C=C/c1ccccc1)=C1/C(=O)C=C(C)C1=O | IC50: 4.5
